Settings: in acetone, 303.15 K
Assay endpoint: solubility (mole fraction)
Give a plain numeric answer without units written out.

*Q* Would you mind telling me what solubility (mole fraction) value was observed for O=C(O)CCCc1c[nH]c2ccccc12 ?
*A* 0.291

====

Settings: in n-butyl acetate, 313.15 K
Assay endpoint: solubility (mole fraction)
Please reply with the number alone, leaving off any unit.

*Q* Item under review: O=C(O)CCCc1c[nH]c2ccccc12 . Reported solubility (mole fraction)?
*A* 0.112

====

Settings: in ethanol, 288.15 K
Assay endpoint: solubility (mole fraction)
I'd appreciate a reply containing only the number, no unit.

*Q* Can you share its solubility (mole fraction)? I mean this molecule: O=C(O)CCCc1c[nH]c2ccccc12
*A* 0.0557
